assay.notes: MTT assay, cytotoxicity against normal HEK293 cells
Format: cell-based, human
condition.description: human, HEK293 cells
metric: viability at 48 h, 40 μM (%)
The reply should be a number in %, with the unit left off.

Here's what some known entries look like.
{"compound": "CC(C)Cc1ccc(C(C)C(=O)NN=Cc2ccc(OCC(=O)NN=Cc3ccc(O)cc3O)cc2)cc1 (centres unmarked) [5e]", "result.value": 69.1}
{"compound": "CCN(CC)c1ccc(C=NNC(=O)COc2ccc(C=NNC(=O)C(C)c3ccc(CC(C)C)cc3)cc2)cc1 (centres unmarked) [5o]", "result.value": 42.9}
{"compound": "COc1ccc(C=NNC(=O)COc2ccc(C=NNC(=O)C(C)c3ccc(CC(C)C)cc3)cc2)c(O)c1 (centres unmarked) [5m]", "result.value": 26.1}

Now take the following compound into account.
Prompt line: For CC(C)Cc1ccc(C(C)C(=O)NN=Cc2ccc(OCC(=O)NN)cc2)cc1 (centres unmarked) [compound 4] , write its viability at 48 h, 40 μM.
Response line: 28.6

* * *

Test system: U87-malignant glioma (ATCC-HTB-14)
assay.notes: MTT assay, cytotoxicity against U87-malignant glioma cells
Assay type: cell-based, human
condition.description: Homo sapiens, Glioma cell, read-out: % cell viability U87
metric: viability at 10 µM (%)
Numbers only here, please. The scale is %.

Examples with answers:
{"molecule": "CC(C)Cc1ccc(C(C)C(=O)NN=Cc2ccc(OCC(=O)NN=Cc3cc(Br)c(O)c(Br)c3)cc2)cc1 (stereo not drawn)", "unit.of.measurement": "%", "result.value": 40.3}
{"molecule": "CC(C)Cc1ccc(C(C)C(=O)NN=Cc2ccc(OCC(=O)NN=Cc3ccc(Br)cc3F)cc2)cc1 (stereo not drawn)", "unit.of.measurement": "%", "result.value": 187}
{"molecule": "CC(C)Cc1ccc(C(C)C(=O)NN=Cc2ccc(OCC(=O)NN=Cc3ccc(F)cc3)cc2)cc1 (stereo not drawn)", "unit.of.measurement": "%", "result.value": 183}

Prompt line: Report measured viability at 10 µM on U87-malignant glioma (ATCC-HTB-14); entry: CCN(CC)c1ccc(C=NNC(=O)COc2ccc(C=NNC(=O)C(C)c3ccc(CC(C)C)cc3)cc2)cc1 (stereo not drawn)
Response line: 146

Prompt line: Recall the reported viability at 10 µM of COc1cccc(C=NNC(=O)COc2ccc(C=NNC(=O)C(C)c3ccc(CC(C)C)cc3)cc2)c1 (stereo not drawn) when tested on U87-malignant glioma (ATCC-HTB-14).
Response line: 151

Prompt line: Retrieve viability at 10 µM on U87-malignant glioma (ATCC-HTB-14); query CC(C)Cc1ccc(C(C)C(=O)NN=Cc2ccc(OCC(=O)NN)cc2)cc1 (stereo not drawn)
Response line: 72.5

* * *

assay.notes: MTT assay, cytotoxicity against normal HEK293 cells
Format: cell-based, human
condition.description: human, HEK293 cells
Recorded viability at 48 h, 150 μM by entry
Just the number please, in %, no unit attached.

Prompt line: Tell us which viability at 48 h, 150 μM value is on record for CC(C)Cc1ccc(C(C)C(=O)NN=Cc2ccc(OCC(=O)NN=Cc3cccc4ccccc34)cc2)cc1 (centres unmarked) [5t]
Response line: 43

Prompt line: Provide one value: measured viability at 48 h, 150 μM of COc1ccc(C=NNC(=O)COc2ccc(C=NNC(=O)C(C)c3ccc(CC(C)C)cc3)cc2)c(O)c1 (centres unmarked) [5m]
Response line: 18.6

Prompt line: Please list viability at 48 h, 150 μM recorded for the compound COc1cccc(C=NNC(=O)COc2ccc(C=NNC(=O)C(C)c3ccc(CC(C)C)cc3)cc2)c1 (centres unmarked) [5p]
Response line: 39.3

Prompt line: Determine from records and report viability at 48 h, 150 μM for COc1ccc(C=NNC(=O)COc2ccc(C=NNC(=O)C(C)c3ccc(CC(C)C)cc3)cc2)cc1OC (centres unmarked) [5l]
Response line: 24.2

Prompt line: Answer with the recorded viability at 48 h, 150 μM of COc1ccc(C=NNC(=O)COc2ccc(C=NNC(=O)C(C)c3ccc(CC(C)C)cc3)cc2)cc1O (centres unmarked) [5n] only.
Response line: 12.6

Prompt line: Identify the reported viability at 48 h, 150 μM for the following entry. CC(C)Cc1ccc(C(C)C(=O)NN=Cc2ccc(OCC(=O)NN=Cc3ccccc3O)cc2)cc1 (centres unmarked) [5r]
Response line: 25.1

Prompt line: Provide only the value of recorded viability at 48 h, 150 μM for COc1ccc(C=NNC(=O)COc2ccc(C=NNC(=O)C(C)c3ccc(CC(C)C)cc3)cc2)c(OC)c1 (centres unmarked) [5f]
Response line: 63.5

Prompt line: Entry CC(C)Cc1ccc(C(C)C(=O)NN=Cc2ccc(OCC(=O)NN)cc2)cc1 (centres unmarked) [compound 4] needs its viability at 48 h, 150 μM filled in; supply it.
Response line: 9.96

* * *

viability at 80 µM values by entry
Test system: U87-malignant glioma (ATCC-HTB-14)
assay.notes: MTT assay, cytotoxicity against U87-malignant glioma cells
Assay type: cell-based, human
condition.description: Homo sapiens, Glioma cell, read-out: % cell viability U87
Just the number in %, nothing appended.

{"molecule": "CC(C)Cc1ccc(C(C)C(=O)NN=Cc2ccc(OCC(=O)NN=Cc3ccc(Br)cc3F)cc2)cc1 (centres unmarked)", "unit.of.measurement": "%", "result.value": 94.2}

Prompt line: Report measured viability at 80 µM on U87-malignant glioma (ATCC-HTB-14); entry: COc1cccc(C=NNC(=O)COc2ccc(C=NNC(=O)C(C)c3ccc(CC(C)C)cc3)cc2)c1 (centres unmarked)
Response line: 93.7

Prompt line: Find viability at 80 µM for CC(C)Cc1ccc(C(C)C(=O)NN=Cc2ccc(OCC(=O)NN=Cc3ccc(Cl)cc3Cl)cc2)cc1 (centres unmarked) on U87-malignant glioma (ATCC-HTB-14) and write it down.
Response line: 48.8

Prompt line: Provide viability at 80 µM, recorded with U87-malignant glioma (ATCC-HTB-14), of CC(C)Cc1ccc(C(C)C(=O)NN=Cc2ccc(OCC(=O)NN=Cc3cccc4ccccc34)cc2)cc1 (centres unmarked)
Response line: 155

Prompt line: Report value: viability at 80 µM, system: U87-malignant glioma (ATCC-HTB-14), molecule: CCN(CC)c1ccc(C=NNC(=O)COc2ccc(C=NNC(=O)C(C)c3ccc(CC(C)C)cc3)cc2)cc1 (centres unmarked)
Response line: 121

Prompt line: Output reported viability at 80 µM of the molecule CC(C)Cc1ccc(C(C)C(=O)NN=Cc2ccc(OCC(=O)NN=Cc3ccc(F)cc3)cc2)cc1 (centres unmarked) on U87-malignant glioma (ATCC-HTB-14).
Response line: 81.7

Prompt line: State, for U87-malignant glioma (ATCC-HTB-14), measured viability at 80 µM of the molecule listed here: CC(C)Cc1ccc(C(C)C(=O)NN=Cc2ccc(OCC(=O)NN)cc2)cc1 (centres unmarked)
Response line: 41.6

Prompt line: State viability at 80 µM (U87-malignant glioma (ATCC-HTB-14)) of COc1ccc(C=NNC(=O)COc2ccc(C=NNC(=O)C(C)c3ccc(CC(C)C)cc3)cc2)c(OC)c1 (centres unmarked) .
Response line: 38.7

* * *

System: U87-malignant glioma (ATCC-HTB-14)
assay.notes: MTT assay, cytotoxicity against U87-malignant glioma cells
Type: cell-based, human
condition.description: Homo sapiens, Glioma cell, read-out: % cell viability U87
metric: viability at 10 µM (%)
Quick note: give the figure in %, leave out the unit.

Prompt line: In one line, give reported viability at 10 µM of the entry COc1ccc(C=NNC(=O)COc2ccc(C=NNC(=O)C(C)c3ccc(CC(C)C)cc3)cc2)cc1OC (centres unmarked) .
Response line: 97

* * *

In this section, each of the compounds is paired with its reported viability at 48 h, 80 μM.
assay.notes: MTT assay, cytotoxicity against normal HEK293 cells
Type: cell-based, human
condition.description: human, HEK293 cells
Kindly answer with a numeric value in %, unit omitted.

{"compound": "CC(C)Cc1ccc(C(C)C(=O)NN=Cc2ccc(OCC(=O)NN=Cc3ccccc3O)cc2)cc1 (stereo not drawn) [5r]", "unit.of.measurement": "%", "viability at 48 h, 80 μM": 32}
{"compound": "CCN(CC)c1ccc(C=NNC(=O)COc2ccc(C=NNC(=O)C(C)c3ccc(CC(C)C)cc3)cc2)cc1 (stereo not drawn) [5o]", "unit.of.measurement": "%", "viability at 48 h, 80 μM": 37.7}
{"compound": "COc1cccc(C=NNC(=O)COc2ccc(C=NNC(=O)C(C)c3ccc(CC(C)C)cc3)cc2)c1 (stereo not drawn) [5p]", "unit.of.measurement": "%", "viability at 48 h, 80 μM": 49.2}

Prompt line: Specify viability at 48 h, 80 μM for CC(C)Cc1ccc(C(C)C(=O)NN=Cc2ccc(OCC(=O)NN=Cc3ccc(F)cc3)cc2)cc1 (stereo not drawn) [5q] and stop.
Response line: 19.9

Prompt line: Recall and state the measured viability at 48 h, 80 μM for COc1ccc(C=NNC(=O)COc2ccc(C=NNC(=O)C(C)c3ccc(CC(C)C)cc3)cc2)c(OC)c1 (stereo not drawn) [5f] .
Response line: 71.9

Prompt line: # return recorded viability at 48 h, 80 μM for input CC(C)Cc1ccc(C(C)C(=O)NN=Cc2ccc(OCC(=O)NN=Cc3cc(Br)c(O)c(Br)c3)cc2)cc1 (stereo not drawn) [5i]
Response line: 55.7
